Test Summary: Intrinsic clearance in human liver microsomes assessed as per mg protein
Assay type: ADME, Microsome
Below: a set of entries, each annotated with reported microsomal CLint.
Lab book: enter the figure in µL/min/mg, no units written.

Examples from the recorded data:
>>> print(df.to_string())
                                   molecule  observed_measurement
0  Cc1[nH]c(C(=O)NC2CC2)c(C)c1Cc1ccc(C(F)(F)F)nc1                    15
1  CCNC(=O)c1[nH]c(C)c(Cc2ccc(C(F)(F)F)nc2)c1C                    70
2  Cc1c(Cc2ccc(C(F)(F)F)nc2)c[nH]c1C(=O)NC1CCC1                    29

Measured microsomal CLint of `Cc1c(Cc2ccc(C(F)(F)F)cc2Cl)c[nH]c1C(=O)NC1CC1` : 14

Measured microsomal CLint of `Cc1[nH]c(C(=O)N2CCC2)c(C)c1Cc1ccc(C(F)(F)F)nc1` : 31

Measured microsomal CLint of `CCOC(=O)c1[nH]c(C)c(Cc2ccc(OCC)cc2)c1C` : 188

Measured microsomal CLint of `Cc1c(Cc2ccc(C(F)(F)F)nc2)c[nH]c1C(=O)NC1CC1` : 10

Measured microsomal CLint of `Cc1[nH]c(C(=O)N2CCCCC2)cc1Cc1ccc(C(F)(F)F)nc1` : 173

Measured microsomal CLint of `CCOC(=O)c1[nH]c(C)c(Cc2ccc(C(F)(F)F)nc2)c1C` : 286

* * *

Test Summary: Cmax in Sprague-Dawley rat at 3 mg/kg, po administered via gavage measured up to 24 hrs by LC-MS analysis
Type: ADME, organism-based
Set-up: dose 3 mg/kg, route oral
Conditions: in vivo
Property: Cmax (nM)
Lab book: enter the figure in nM, no units written.

Measured Cmax of `Cc1c(Cc2ccc(C(F)(F)F)nc2)c[nH]c1C(=O)NC1CC1` : 1700

* * *

Test Summary: Cmax in Swiss mouse blood at 10.5 mg/kg, po via gavage measured up to 24 hrs by UPLC-MS analysis
Conditions: in vivo
Property: Cmax

Measured Cmax of `Cc1c(Cc2ccc(C(F)(F)F)nc2)c[nH]c1C(=O)NC1CC1` : 3.7 µM

* * *

Test Summary: Cmax in Sprague-Dawley rat at 18.8 mg/kg, po by LC-MS analysis
Format: ADME, organism-based
Parameters: dose 18.8 mg/kg, route oral
Conditions: in vivo
Property: Cmax
Answer with the value and then the unit.

Measured Cmax of `Cc1cc(Nc2ccc(S(F)(F)(F)(F)F)cc2)n2nc(C(C)(F)F)nc2n1` : 3.95 µM

* * *

Assay System: Potassium voltage-gated channel subfamily A member 5 (Homo sapiens)
Sequence (P22460 whole entry): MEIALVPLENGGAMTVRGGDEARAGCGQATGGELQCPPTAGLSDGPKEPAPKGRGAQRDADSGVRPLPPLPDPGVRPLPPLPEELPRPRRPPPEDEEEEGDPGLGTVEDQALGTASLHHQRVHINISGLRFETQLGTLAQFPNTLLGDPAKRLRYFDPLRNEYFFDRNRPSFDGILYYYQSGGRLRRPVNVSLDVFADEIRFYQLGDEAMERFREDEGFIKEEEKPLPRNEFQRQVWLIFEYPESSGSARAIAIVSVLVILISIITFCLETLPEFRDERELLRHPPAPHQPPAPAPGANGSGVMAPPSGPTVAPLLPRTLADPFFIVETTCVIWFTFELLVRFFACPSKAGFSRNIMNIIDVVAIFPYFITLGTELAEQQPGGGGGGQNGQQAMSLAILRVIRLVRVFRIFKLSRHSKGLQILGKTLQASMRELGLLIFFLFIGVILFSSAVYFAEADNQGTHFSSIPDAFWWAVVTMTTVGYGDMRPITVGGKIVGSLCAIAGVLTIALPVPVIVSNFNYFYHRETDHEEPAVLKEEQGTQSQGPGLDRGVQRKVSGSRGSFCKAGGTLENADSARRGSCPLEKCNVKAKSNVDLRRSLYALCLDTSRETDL
Test Summary: Inhibition of human Kv1.5 by IonWorks patch clamp electrophysiology assay
Property: EC50

Measured EC50 of `Cc1c(Cc2ccc(C(F)(F)F)nc2)c[nH]c1C(=O)NC1CC1` : > 11 µM

* * *

System: Plasmodium falciparum
Test Summary: microbe, parasite or virus in culture
Conditions: 1D3, 72 h
Property: EC50 (nM)
Lab book: enter the figure in nM, no units written.

Measured EC50 of `Cc1cc(Nc2ccc(S(F)(F)(F)(F)F)cc2)n2nc(C(C)(F)F)nc2n1` : 23

* * *

Test Summary: Volume of distribution at steady state in Sprague-Dawley rat at […], iv administered as infusion for 10 mins and measured up to 24 hrs by LC-MS analysis
Format: ADME, organism-based
Conditions: in vivo, read-out: Vdss
Property: Vd (L/kg)
Lab book: enter the figure in L/kg, no units written.

Measured Vd of `Cc1c(Cc2ccc(C(F)(F)F)nc2)c[nH]c1C(=O)NC1CC1` : 4.7
